B1: library; a variant is named by its letters at N, in order (parent)
chain: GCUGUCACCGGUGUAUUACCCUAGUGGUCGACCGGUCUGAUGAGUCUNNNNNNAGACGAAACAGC

Variants of: B1
assay comment: normalized RNA/DNA level with ligand (relative to sTRSVctl = 100) (log10 (% of sTRSVctl)); ligand: hypoxanthine (xanthine aptamer); higher = less ribozyme self-cleavage, higher mRNA level
experimental parameters: ligand concentration (+) RNA-Seq: 5 mM, HEK293T, reporter: mCherry (pCS4076), ligand present: yes
outcome measure: normalized RNA/DNA level with ligand (log10)
Lab note: record the figure alone, no unit after it.

Some variants with known normalized RNA/DNA level with ligand (log10) results, for comparison:
[
  {
    "record sequence": "GCUGUCACCGGUGUAUUACCCUAGUGGUCGACCGGUCUGAUGAGUCUGCCUGAAGACGAAACAGC [GCCUGA]",
    "recorded measurement": 1.99
  },
  {
    "record sequence": "GCUGUCACCGGUGUAUUACCCUAGUGGUCGACCGGUCUGAUGAGUCUUAACACAGACGAAACAGC [UAACAC]",
    "recorded measurement": 1.91
  },
  {
    "record sequence": "GCUGUCACCGGUGUAUUACCCUAGUGGUCGACCGGUCUGAUGAGUCUGGAUUAAGACGAAACAGC [GGAUUA]",
    "recorded measurement": 1.94
  },
  {
    "record sequence": "GCUGUCACCGGUGUAUUACCCUAGUGGUCGACCGGUCUGAUGAGUCUCGGUUGAGACGAAACAGC [CGGUUG]",
    "recorded measurement": 1.97
  },
  {
    "record sequence": "GCUGUCACCGGUGUAUUACCCUAGUGGUCGACCGGUCUGAUGAGUCUAUUAGCAGACGAAACAGC [AUUAGC]",
    "recorded measurement": 1.92
  }
]

IN: Find the recorded normalized RNA/DNA level with ligand (log10) belonging to GCUGUCACCGGUGUAUUACCCUAGUGGUCGACCGGUCUGAUGAGUCUCCAAUUAGACGAAACAGC [CCAAUU] and report it.
OUT: 1.92

IN: GCUGUCACCGGUGUAUUACCCUAGUGGUCGACCGGUCUGAUGAGUCUUCGGUUAGACGAAACAGC [UCGGUU] , same question.
OUT: 1.94

IN: GCUGUCACCGGUGUAUUACCCUAGUGGUCGACCGGUCUGAUGAGUCUGCAACCAGACGAAACAGC [GCAACC] , same question.
OUT: 1.93

IN: GCUGUCACCGGUGUAUUACCCUAGUGGUCGACCGGUCUGAUGAGUCUACCGUGAGACGAAACAGC [ACCGUG] , same question.
OUT: 1.86

Recorded values, source the supplement of paper PMC6757056.
